# assay system: DNA Polymerase IIIα (DnaE) from Staphylococcus aureus (Staphylococcus aureus)
# Sequence (Q6GG04 1-1022): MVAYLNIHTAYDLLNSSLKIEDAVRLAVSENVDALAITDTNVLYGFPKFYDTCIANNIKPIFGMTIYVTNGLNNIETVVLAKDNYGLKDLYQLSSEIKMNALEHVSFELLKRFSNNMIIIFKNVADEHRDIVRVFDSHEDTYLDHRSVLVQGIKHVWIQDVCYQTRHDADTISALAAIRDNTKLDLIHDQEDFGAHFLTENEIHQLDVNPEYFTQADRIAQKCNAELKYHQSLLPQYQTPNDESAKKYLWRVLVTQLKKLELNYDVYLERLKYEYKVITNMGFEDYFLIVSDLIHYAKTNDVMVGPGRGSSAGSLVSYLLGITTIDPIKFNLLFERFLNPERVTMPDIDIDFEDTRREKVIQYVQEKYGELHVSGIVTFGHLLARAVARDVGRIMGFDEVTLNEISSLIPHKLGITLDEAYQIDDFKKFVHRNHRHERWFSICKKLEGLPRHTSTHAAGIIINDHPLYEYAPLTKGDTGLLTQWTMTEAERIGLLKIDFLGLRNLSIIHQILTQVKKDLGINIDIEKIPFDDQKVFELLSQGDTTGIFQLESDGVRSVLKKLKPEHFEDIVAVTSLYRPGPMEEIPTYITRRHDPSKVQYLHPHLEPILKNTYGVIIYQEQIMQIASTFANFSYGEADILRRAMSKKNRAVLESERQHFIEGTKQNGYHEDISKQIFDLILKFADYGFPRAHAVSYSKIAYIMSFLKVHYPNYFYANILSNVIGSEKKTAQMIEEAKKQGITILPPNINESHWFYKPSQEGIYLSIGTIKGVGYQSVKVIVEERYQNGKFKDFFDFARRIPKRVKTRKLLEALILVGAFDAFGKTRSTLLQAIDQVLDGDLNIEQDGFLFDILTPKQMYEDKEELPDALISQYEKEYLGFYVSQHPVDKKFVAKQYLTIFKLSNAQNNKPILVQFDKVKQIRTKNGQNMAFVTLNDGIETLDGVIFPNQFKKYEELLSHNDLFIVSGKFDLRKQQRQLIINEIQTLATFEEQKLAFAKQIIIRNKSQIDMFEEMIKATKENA
# test protocol: biochemical
experimental readout: IC50

Record excerpt, results attached:
[[record]]
compound = "COC[C@@H](O)[C@H]1OC(=O)[C@H](COC)[C@H]2C=C[C@H]3[C@H]4O[C@]2(/C(C)=C/[C@H]1C)[C@@H]3[C@H](O)[C@@H](C)[C@H]4OC(=O)c1ccoc1 [Compound 7, 8-O-Furane-3′-carbonylbaleomycin]"
meas_value = "1.83 to 1830 nM"

[[record]]
compound = "COCC[C@H]1OC(=O)[C@H](COC)[C@H]2C=C[C@H]3[C@H]4O[C@]2(/C(C)=C/[C@H]1C)[C@@H]3[C@H](O)[C@@H](COC)[C@H]4OC(=O)c1ccc[nH]1 [Compound 4]"
meas_value = "1.79 to 1790 nM"

[[record]]
compound = "COC[C@@H]1[C@@H](O)[C@@H]2[C@H]3CC[C@@H]4[C@@H](COC)C(=O)O[C@H]([C@H](O)COC)[C@H](C)/C=C(\\C)[C@@]24O[C@H]3[C@@H]1OC(=O)c1ccc[nH]1 [Compound 16]"
meas_value = "1.73 to 1730 nM"

[[record]]
compound = "CO[C@H]1C[C@H]2C=C[C@H]3[C@H]4O[C@]2(/C(C)=C/[C@@H](C)[C@@H]([C@@H](C)O)OC1=O)[C@@H]3[C@H](O)[C@@H](C)[C@H]4O [Nodusmicin, reference compound]"
meas_value = "2.37 to 2370 nM"

[[record]]
compound = "COC[C@@H](O)[C@H]1OC(=O)[C@H](COC)[C@H]2C=C[C@H]3[C@H]4O[C@]2(/C(C)=C/[C@H]1C)[C@@H]3[C@H](O)[C@@H](C)[C@H]4OC(=O)c1cc(F)c[nH]1 [Compound 23]"
meas_value = "1.77 to 1770 nM"


Next, consider the following compound.
Task: Assign IC50 to the following record: COCC(=NO)[C@H]1OC(=O)[C@H](COC)[C@H]2C=C[C@H]3[C@H]4O[C@]2(/C(C)=C/[C@H]1C)[C@@H]3[C@H](O)[C@@H](COC)[C@H]4OC(=O)c1cc(F)c[nH]1 [Compound 40]
Output: 1.65 to 1650 nM
